Each entry below carries its recorded growth inhibition.
assay: NCI Yeast Anticancer Drug Screen. Data for the cln2 rad14 strain (AID 165);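 note: 0% = growth equal to vehicle treated cultures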; settings: S. cerevisiae cln2 rad14 strain, at 50.0 µM, stronger effect = higher value
This is part of a sample that, as a whole, favours compounds with a hit. Of some 79,000 tested, about 15% had one in any assay. Active and inactive are the calls of the source. Cut-off read from the data, not from the text of the source: active = growth inhibition above about 70%; inactive = the rest.

{"columns": ["molecule", "growth inhibition"],
 "data": [
  ["COC(=O)Nc1nc2ccc(-n3c(C)nc4ccccc4c3=O)cc2[nH]1", "8.5% (inactive)"],
  ["O=C(c1cccc(Cl)c1)c1cccc2ccccc12", "-37% (inactive)"],
  ["CSc1n[nH]c(N)c1C(=O)Nc1ccc(C)cc1", "22.4% (inactive)"],
  ["Cc1nc2sccc2c(=O)n1C", "-4.1% (inactive)"],
  ["COc1ccc2nccc(CO)c2c1", "-33.2% (inactive)"],
  ["CCOc1c/c(=N\\N=C(/C)c2ccc(Cl)cc2)n(C)c(=O)n1C", "-35.2% (inactive)"],
  ["C=C(C)C(C)(C)n1[nH]c(=O)n(-c2ccccc2)c1=O", "-23.1% (inactive)"],
  ["CCCCCCCCC(O)C(O)CCCCCCCCOC(=O)CCCCCCCCCCC(O)CCCCCC (stereo not drawn)", "-9.7% (inactive)"],
  ["CCCC(=O)OC1CCCC1", "24.1% (inactive)"],
  ["O=C(N/C(=C\\c1ccccc1)C1Nc2ccccc2C(=O)O1)c1ccccc1 (stereo not drawn)", "-17.2% (inactive)"],
  ["O=P1(c2ccccc2)c2ccccc2CCc2ccccc21", "22.1% (inactive)"],
  ["OC1COC(C2CCCO2)OC1 (stereo not drawn)", "1.35% (inactive)"],
  ["CCOC(=O)NC(Nc1ccc(C(=O)OCC)cc1)(C(F)(F)F)C(F)(F)F", "-16% (inactive)"],
  ["CCN(CC)C1Oc2cc3c(cc2C(c2cccc(OC)c2O)C1C)OCO3 (stereo not drawn)", "21.7% (inactive)"],
  ["CC1(C)CC(C)(OC(=O)c2ccccc2)N=N1 (stereo not drawn)", "-16.4% (inactive)"],
  ["COC(=O)C(=O)C(C(=O)C(=O)Nc1nc(=S)[nH][nH]1)c1nc2ccc([N+](=O)[O-])cc2[nH]c1=O (stereo not drawn)", "-17.6% (inactive)"],
  ["Cc1c(CN2CCOCC2)c(CN2CCOCC2)c(C)n1-c1ccc(Cl)cn1", "-6.85% (inactive)"],
  ["CC(=O)Nc1cc(CN2CCCCC2)c(O)c2ncccc12", "-36% (inactive)"],
  ["Cc1ncc(C(N)=O)c(N)n1", "-42% (inactive)"],
  ["CCN(CC)CCCNc1ccc(-c2cc(OC)cc3cccnc23)cc1", "-14.1% (inactive)"],
  ["COc1cc2c(cc1OC)C(C(=O)O)C(c1ccccc1)N(C)C2=O (stereo not drawn)", "19.4% (inactive)"],
  ["Cc1cc(C)c2ccc(NC(=O)CCC(=O)O)nc2n1", "10.7% (inactive)"],
  ["O=c1cc2c(n[nH]1)CCCC2", "16.9% (inactive)"],
  ["COc1c2ccoc2c(S(=O)(=O)Nc2ccc(Cl)cc2)c2oc(C)cc(=O)c12", "-8.15% (inactive)"],
  ["c1ccc(-c2ccc(C(=C(c3ccc(-c4ccccc4)cc3)c3ccc(-c4ccccc4)cc3)c3ccc(-c4ccccc4)cc3)cc2)cc1", "-4.15% (inactive)"],
  ["Cc1nc2ccccc2nc1N1CCCC1", "-25.2% (inactive)"],
  ["COC1Cc2c(C)c(OC(C)=O)c3cccnc3c2O1 (stereo not drawn)", "18.6% (inactive)"],
  ["CCC(C)C1(C)OC1C(=O)OC (stereo not drawn)", "22.1% (inactive)"],
  ["COC(=O)C(NC(=O)C(CC(=O)OC(C)(C)C)NC(=O)OC(C)(C)C)C(O)c1ccccc1 (stereo not drawn)", "-0.75% (inactive)"],
  ["Cc1cccc(-c2cc3cccnc3nc2NN=O)c1C", "39.3% (inactive)"],
  ["CC(=N\\N=C\\c1ccccn1)/C(C)=N/N=C(C)/C(C)=N/N=C/c1ccccn1", "11.4% (inactive)"],
  ["COC(=O)CCCc1ccc2c(c1)CC1(C2)Cc2cc3c(cc2C1)CCCC3", "-15.5% (inactive)"],
  ["Cc1ccc(OCC(O)CN2CCN(c3ccc(C)cc3)CC2)cc1 (stereo not drawn)", "-35.7% (inactive)"],
  ["CCOC(=O)C(Cc1ccc(OCc2ccccc2)c(OCc2ccccc2)c1)(NC=O)C(=O)OCC", "-14.8% (inactive)"],
  ["CCOC(=O)C(NC(C)=O)C(C)O (stereo not drawn)", "3.85% (inactive)"],
  ["Oc1ccc2ccccc2c1Br", "26.1% (inactive)"],
  ["O=C1COC(C(O)(c2ccccc2)c2ccccc2)C(=O)N1 (stereo not drawn)", "-65% (inactive)"],
  ["COc1ccc(-c2c3ccccc3c(-c3ccc(OCCCCCBr)cc3)c3ccccc23)cc1", "-30.1% (inactive)"],
  ["Brc1ccc(/C(=N/Nc2ccccc2)Oc2ccccc2)cc1", "25.3% (inactive)"],
  ["CCOc1ccc(/C=C2\\C=Nc3ccccc32)cc1", "6.7% (inactive)"],
  ["c1ccc(-c2nc(-c3nn[nH]n3)c3ccccc3n2)cc1", "-19.6% (inactive)"],
  ["NC(=O)c1ccccc1N1CCCCC1", "21.5% (inactive)"],
  ["CCCCOC(=O)COc1ccc2c(C)c(CCN(CC)CC)c(=O)oc2c1", "-7.55% (inactive)"],
  ["O=C1NC2C1C1c3ccccc3C2C12CC2 (stereo not drawn)", "-11.8% (inactive)"],
  ["C/C(=N\\NC(=O)c1ccncc1)c1ccccc1Cl", "-13.3% (inactive)"],
  ["O=c1[nH]c(=S)[nH]c2[nH]ccc12", "-1.1% (inactive)"],
  ["COc1ccc(OC)c2c(NCCNCCO)cc(NCCNCCO)nc12", "0% (inactive)"],
  ["Cc1nc2ccccc2c(=O)n1NC(=O)c1ccc([N+](=O)[O-])cc1", "-21.4% (inactive)"]
]}

====

Test: NCI Yeast Anticancer Drug Screen. Data for the cln2 rad14 strain (AID 165);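 note: 0% = growth equal to vehicle treated cultures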
Details: S. cerevisiae cln2 rad14 strain, at 50.0 µM, stronger effect = higher value
Method: Growth inhibition of yeast strains with defined genetic alterations is measured as a screen for potential anti-cancer activity. Selected strains with alterations in DNA damage repair or cell cycle control were exposed to compounds and growth inhibition was measured relative to vehicle treated controls. The strain used in this assay is cln2 rad14
This is part of a sample that, as a whole, favours compounds with a hit. Of some 79,000 tested, about 15% had one in any assay. Active and inactive are the calls of the source. Cut-off read from the data, not from the text of the source: active = growth inhibition above about 70%; inactive = the rest.

{"columns": ["compound", "growth inhibition"],
 "data": [
  ["c1cc2cc(C3=NCCN3)[nH]c2cc1C1=NCCN1", "43.5% (inactive)"],
  ["COc1ccc(C2=C(OC(C)=O)c3cccn3-c3ccccc3S2)cc1", "-45.9% (inactive)"],
  ["CNc1nc(C(F)(F)F)nc2[nH]ncc12", "-16.9% (inactive)"],
  ["CCC(=O)C1C(=O)CC(=O)C(C)C1c1ccccc1OC (stereo unspecified)", "38.5% (inactive)"],
  ["O=C(CC(=O)N(C(=O)c1ccccc1)c1ccc(Cl)cc1)N/N=C\\c1cc(N=Nc2ccccc2Cl)ccc1O", "15.2% (inactive)"],
  ["Cc1ccc(Br)cc1C(=O)O", "13.8% (inactive)"]
]}

====

Each item that follows carries a reported growth inhibition.
test: NCI Yeast Anticancer Drug Screen. Data for the sgs1 mgt1 strain (AID 161);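 note: 0% = growth of cultures given vehicle only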; conditions: S. cerevisiae sgs1 mgt1 strain, at 50.0 µM, stronger effect = higher value
Compounds without any hit were thinned out: in the full panel of roughly 79,000, 15% have a hit.
recordedEndpoint: growth inhibition (%)

{"columns": ["compound", "recordedEndpoint", "outputUnit", "observed"],
 "data": [
  ["C[N+](=C\\c1ccccc1O)/N=C\\c1ccccc1O", "growth inhibition", "%", 6.75],
  ["CC(C)(C)N1CCC(=O)C1=O", "growth inhibition", "%", 1.85],
  ["[N-]=[N+]=Nc1ccc(-c2nc(N)nc(N)n2)cc1", "growth inhibition", "%", -2.55],
  ["CCN(CC)c1ccc2cc(C(=O)Nc3nc(C45CC6CC(CC(C6)C4)C5)cs3)c(=O)oc2c1", "growth inhibition", "%", -16.9],
  ["CCOC1CS(=O)(=O)CC(OCC)O1 (stereo not drawn)", "growth inhibition", "%", 4.9],
  ["C[N+](C)(C)Cc1ccc2ccccc2c1CC(O)(c1ccccc1)c1ccccc1", "growth inhibition", "%", 19.1],
  ["CCCCCCCCCCCCCCCCCCOC(=O)c1cccnc1", "growth inhibition", "%", 15.8],
  ["CCOC1OC(C(O)CO)C(O)C1O (stereo not drawn)", "growth inhibition", "%", 5.25],
  ["O=C(CCl)N1C(=O)NC(c2ccc(Cl)cc2)(c2ccc(Cl)cc2)C1=O", "growth inhibition", "%", 8.9],
  ["OC(NN=C1CCCC1)(C(F)(F)Cl)C(F)(F)Cl", "growth inhibition", "%", -4.45],
  ["COc1cccc(C(C#N)c2cnc3ccccc3n2)c1 (stereo not drawn)", "growth inhibition", "%", 10.1],
  ["O=C(NCCCl)Oc1ccccc1", "growth inhibition", "%", -7.95],
  ["Cc1ccc(O)c(C2C=CCC2)c1 (stereo not drawn)", "growth inhibition", "%", 22.8]
]}
